Molecular target: glucocerebrosidase (Gcase) (Homo sapiens, UniProt P04062)
Construct: micellar solution containing 10 nM GCase and 100 nM saposin C
Sequence (P04062 40-536): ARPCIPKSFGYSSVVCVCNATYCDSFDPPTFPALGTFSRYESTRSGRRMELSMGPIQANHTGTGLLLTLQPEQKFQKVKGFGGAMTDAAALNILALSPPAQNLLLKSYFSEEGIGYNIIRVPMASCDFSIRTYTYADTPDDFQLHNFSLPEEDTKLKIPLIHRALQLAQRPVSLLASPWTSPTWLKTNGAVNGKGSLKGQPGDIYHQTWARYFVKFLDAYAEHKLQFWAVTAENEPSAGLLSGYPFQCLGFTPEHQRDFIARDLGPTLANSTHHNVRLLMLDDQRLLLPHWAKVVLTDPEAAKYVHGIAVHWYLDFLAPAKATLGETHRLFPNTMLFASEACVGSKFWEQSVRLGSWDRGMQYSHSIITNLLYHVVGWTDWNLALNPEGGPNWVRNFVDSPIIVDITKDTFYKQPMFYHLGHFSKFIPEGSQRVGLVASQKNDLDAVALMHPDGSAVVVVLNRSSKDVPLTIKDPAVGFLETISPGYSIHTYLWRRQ
Test: Glucocerebrosidase (Gcase) activation assay, 4-methylumbelliferyl-beta-D-glucopyranoside substrate, fluorescence readout
Assay type: biochemical
Details: test compound at 0.1 μM; read-out: Percent Gcase Activation, 0.1 μM Test Compound
measurement kind: activation at 0.1 µM

Example cases with answers are listed next.
- compound: "Cc1ccnc2c(C(=O)N[C@H](C)c3ccc(F)cc3)ccn12"
  activation at 0.1 µM: "10 to 20%"
- compound: "COc1cc(NC(=O)c2ccn3c(C)cc(C)nc23)ccc1-c1cocn1"
  activation at 0.1 µM: "> 20%"
- compound: "Cc1ccnc2c(C(=O)NC3(C)CCOc4ccc(F)cc43)ccn12 (stereo not drawn)"
  activation at 0.1 µM: "10 to 20%"
- compound: "COCC#Cc1ccc(NC(=O)c2ccn3c(C)cc(C)nc23)cn1"
  activation at 0.1 µM: "< 10%"
- compound: "Cc1cc(C)n2ccc(C(=O)Nc3ccc4c(c3)C(Oc3nnc(C)o3)CC4)c2n1 (stereo not drawn)"
  activation at 0.1 µM: "< 10%"

Q. Write down activation at 0.1 µM measured for item Cc1cc(C)n2ccc(C(=O)NC3CCCc4cnccc43)c2n1 (stereo not drawn)
A. < 10%

Q. // Input: "CCCCCO[C@H]1CC[C@H](NC(=O)c2ccn3c(C)cc(C)nc23)CC1" . Output its activation at 0.1 µM only.
A. > 20%

Q. Fill in activation at 0.1 µM for record "CC[C@H](NC(=O)c1ccn2c(C)cc(C)nc12)c1ccccc1"
A. > 20%

Q. Note down activation at 0.1 µM recorded for "CCCCCO[C@H]1CC[C@@H](NC(=O)c2ccn3c(C)cc(C)nc23)CC1"
A. > 20%
